System: Human breast cancer cell line T47D
Test: Cell based caspase-3 activity assay: potentiation of MMS induced apoptosis
Details: Homo sapiens, T47D, 24 h, read-out: EC50 (nM), potentiation of the apoptosis inducing activity of MMS
readoutType: EC50 (nM)

[
  {
    "compound": "O=C(c1cc(Cc2n[nH]c(=O)c3ccccc23)ccc1F)N1CCN(C(=O)C2CC2)CC1 [AZD2281, olaparib, reference compound]",
    "readoutType": "EC50",
    "number": 24
  }
]

* * *

We begin with a simple list: items and their reported IC50.
Tested on: SW620 human colorectal cancer cells
Assay: MTT based cell viability assay: potentiation of the growth inhibiting activity of MMS
Conditions: Homo sapiens, SW-620, 120 h, read-out: IC50 (nM), potentiation of the growth inhibiting activity of MMS, SW620 cells, 1.7 μg/ml MMS, 5 days (120 hours), MTT

[
  {
    "compound": "O=C(c1ccc(Cl)c(Cn2c(=O)[nH]c(=O)c3ccccc32)c1)N1CCN(C(=O)C2CCCC2)CC1",
    "IC50 (nM)": 89
  },
  {
    "compound": "O=C(c1ccc(F)c(Cn2c(=O)[nH]c(=O)c3c(F)cccc32)c1)N1CCN(C(=O)C2CCCCC2)CC1",
    "IC50 (nM)": 18
  },
  {
    "compound": "O=C(c1cccc(Cn2c(=O)[nH]c(=O)c3cccc(O)c32)c1)N1CCN(c2ncccn2)CC1",
    "IC50 (nM)": 2.6
  },
  {
    "compound": "O=C(c1cc(Cn2c(=O)[nH]c(=O)c3c(F)cccc32)ccc1F)N1CCN(C(=O)C2CCCO2)CC1 (stereo not shown)",
    "IC50 (nM)": 10
  }
]
